# Target Or System: receptor interacting protein kinase 1 (GST-hRIPK1 (8-327)) (Homo sapiens, UniProt Q13546)
# Construct: GST-hRIPK1 (8-327) enzyme was generated by Proteros GmbH by Baculovirus expression system
# Sequence (Q13546 8-327): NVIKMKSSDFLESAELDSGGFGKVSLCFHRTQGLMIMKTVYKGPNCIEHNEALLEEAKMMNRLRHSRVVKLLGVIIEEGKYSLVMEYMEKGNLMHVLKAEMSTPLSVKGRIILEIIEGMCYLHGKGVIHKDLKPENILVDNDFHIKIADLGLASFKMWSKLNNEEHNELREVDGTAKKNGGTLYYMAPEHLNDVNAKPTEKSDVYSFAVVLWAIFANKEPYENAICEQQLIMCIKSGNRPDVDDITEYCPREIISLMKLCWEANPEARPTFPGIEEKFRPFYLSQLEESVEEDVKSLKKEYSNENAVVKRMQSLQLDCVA
# Protocol Details: Fluorescent Polarization Binding (FP Binding) assay
# Details: 10 nM GST-hRIPK1 (8-327), 5 nM fluorescent-labeled ligand, 30 min at RT
pIC50: −log10 of the molar value.
Assay Readout: pIC50

Worked cases, answers included:
[[record]]
compound = "COc1cc([C@@H]2CCON2C(=O)C(C)(C)C)ccn1"
assay_readout = "pIC50"
test_value = "> 6.00"

[[record]]
compound = "CC(C)(C)C(=O)N1OCC[C@@H]1c1ccc(Cl)cc1"
assay_readout = "pIC50"
test_value = "< 5.00"

[[record]]
compound = "CC1(C(=O)N2OCC[C@H]2c2ccc(F)cc2)CCCOC1 (single isomer, unassigned) [Compound 36]"
assay_readout = "pIC50"
test_value = "> 6.00"


Any idea what its pIC50 is? The compound is Cn1c(C#N)ccc1C(=O)N1OCC[C@H]1c1ccccc1
> 6.00

Also check CC(C)(CC#N)C(=O)N1OCC[C@H]1c1ccc(C(F)F)nc1
> 6.00

Also check CC(C)(F)C(=O)N1OCC[C@H]1c1ccccc1
> 6.00

====

# Target Or System: receptor interacting protein kinase 1 (GST-hRIPK1 (8-327)) (Homo sapiens)
# Construct: GST-hRIPK1 (8-327) enzyme was generated by Proteros GmbH by Baculovirus expression system
# Protocol Details: ADP-Glo luminescence assay, RIPK1 autophosphorylation
# Type: biochemical
# Details: 1.5 μg/mL GST-hRIPK1 (8-327), 50 μM ATP, 3 hours at room temperature
# IC50 annotations

Worked cases, answers included:
[[record]]
compound = "CC(C)(C)NC(=O)N1OCC[C@H]1c1ccccc1"
assay_readout = "IC50"
test_value = "1000 to 10000 nM"

[[record]]
compound = "O=C(CO)N1OCC[C@H]1c1ccccc1"
assay_readout = "IC50"
test_value = "> 10000 nM"


Any idea what its IC50 is? The compound is O=C(Nc1ccccc1)N1OCC[C@H]1c1ccccc1
< 1000 nM

Also check Cn1cc([C@@H]2CCON2C(=O)C(C)(C)C)cn1 (single isomer, unassigned)
< 1000 nM

Also check CC(C)C(=O)N1OCC[C@H]1c1ccccc1
< 1000 nM

Also check CC(C)(C)OC(=O)N1OCC[C@H]1c1ccccc1
1000 to 10000 nM

Also check Cn1c(C#N)ccc1C(=O)N1OCC[C@@H]1c1ccccc1
> 10000 nM

====

# Target Or System: receptor interacting protein kinase 1 (GST-hRIPK1 (8-327)) (Homo sapiens, UniProt Q13546)
# Construct: GST-hRIPK1 (8-327) enzyme was generated by Proteros GmbH by Baculovirus expression system
# Protocol Details: Fluorescent Polarization Binding (FP Binding) assay
# Details: 10 nM GST-hRIPK1 (8-327), 5 nM fluorescent-labeled ligand, 30 min at RT
# Method: […] After addition of 5 μL of fluorescent-labeled ligand at twice the final concentrations in assay buffer, the plate was incubated at RT for 30 min. At the end, the binding was measured as FP value with the Envision (PerkinElmer) plate reader using filter for an excitation λ=531 nm FP and an emission λ=595 nm FP (S & P-pol). Test compound inhibition was expressed as percent inhibition of internal assay controls. […]
pIC50: −log10 of the molar value.
Assay Readout: pIC50

Worked cases, answers included:
[[record]]
compound = "CC(C)(C(=O)N1OCC[C@H]1c1ccc(F)cc1)N1CCC1"
test_value = "5.00 to 6.00"

[[record]]
compound = "O=C(C1CCO1)N1OCC[C@H]1c1ccccc1 (single isomer, unassigned) [Compound 53]"
test_value = "5.00 to 6.00"


Any idea what its pIC50 is? The compound is CC(C)(C)C(=O)N1OCC[C@@H]1c1cccc(F)c1F
> 6.00

Also check Cc1ncc([C@@H]2CCON2C(=O)C(C)(C)C)cc1C#N
> 6.00

Also check CC1(C(=O)N2OCC[C@H]2c2ccc(F)cc2)CC1(F)F (single isomer, unassigned) [Compound 115]
> 6.00

Also check CC1(C(=O)N2OCC[C@H]2c2ccccc2)CCOCC1
> 6.00

Also check CC(OC(F)(F)F)C(=O)N1OCC[C@H]1c1ccc(F)nc1 (single isomer, unassigned) [Compound 185]
5.00 to 6.00

Also check Cc1cnc([C@@H]2CCON2C(=O)C(C)(C)CC#N)cn1
> 6.00

Also check CC1(C(=O)N2OCC[C@H]2c2ccc(F)cc2)CC1(F)F (single isomer, unassigned) [Compound 114]
> 6.00

Also check CC(C)(C(=O)N1OCC[C@H]1c1cc(F)cc(C#N)c1)C(F)F
> 6.00

Also check CC(CC#N)C(=O)N1OCC[C@H]1c1ccc(C#N)cc1 (single isomer, unassigned) [Compound 209]
> 6.00

Also check CC(C)(C)C(=O)N1OCC[C@H]1c1cc(C#N)ccc1F
> 6.00

Also check COCC1(C(=O)N2OCC[C@H]2c2ccccc2)CC1
5.00 to 6.00
